MEASURED_ON: CDK12 (aa686-1082)/Cyclin K complex (Homo sapiens)
Construct: CDK12 (aa686-1082)/Cyclin K complex
ASSAY_TEXT: CDK12 inhibition assay (Caliper/LabChip EZ Reader kinase assay)
Type: biochemical
MEASUREMENT_SETUP: Table 1; CDK12 (aa686-1082)/Cyclin K 50 nM, ATP 2 mM, 3 hr at 27° C.
Recorded IC50 values for a group of compounds are listed next.

Note down IC50 recorded for N#Cc1ccc2c(-c3nc(N[C@H]4CCC5(CCC5)NC4)ncc3C(F)(F)F)c[nH]c2c1 (single isomer, unassigned)
> 5 µM

Identify IC50 associated with the compound N#Cc1ccc2c(-c3nc(N[C@H]4CCCNC4)ncc3C(F)(F)F)c[nH]c2n1
0.2 to 5 µM

Tell me its IC50 given Ic1cnc(N[C@H]2CCCNC2)nc1-c1c[nH]c2ccccc12 as the entry.
0.2 to 5 µM

* * *

MEASURED_ON: CDK12 (aa686-1082)/Cyclin K complex (Homo sapiens, UniProt Q9NYV4)
Construct: CDK12 (aa686-1082)/Cyclin K complex
Sequence (Q9NYV4 686-1082, species assumed): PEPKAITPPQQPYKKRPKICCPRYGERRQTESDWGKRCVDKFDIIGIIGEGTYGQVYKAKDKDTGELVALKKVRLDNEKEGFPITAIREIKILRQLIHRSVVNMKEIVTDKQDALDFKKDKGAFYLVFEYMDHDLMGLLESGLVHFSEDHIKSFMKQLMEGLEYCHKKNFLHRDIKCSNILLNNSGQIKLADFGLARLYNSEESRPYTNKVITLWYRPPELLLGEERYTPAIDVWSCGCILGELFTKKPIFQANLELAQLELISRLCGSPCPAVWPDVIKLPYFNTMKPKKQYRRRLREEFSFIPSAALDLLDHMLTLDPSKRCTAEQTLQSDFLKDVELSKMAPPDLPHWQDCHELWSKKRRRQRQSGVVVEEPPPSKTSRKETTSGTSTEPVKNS
Sequence (O75909 whole entry partner, species assumed, the tested form may be a part): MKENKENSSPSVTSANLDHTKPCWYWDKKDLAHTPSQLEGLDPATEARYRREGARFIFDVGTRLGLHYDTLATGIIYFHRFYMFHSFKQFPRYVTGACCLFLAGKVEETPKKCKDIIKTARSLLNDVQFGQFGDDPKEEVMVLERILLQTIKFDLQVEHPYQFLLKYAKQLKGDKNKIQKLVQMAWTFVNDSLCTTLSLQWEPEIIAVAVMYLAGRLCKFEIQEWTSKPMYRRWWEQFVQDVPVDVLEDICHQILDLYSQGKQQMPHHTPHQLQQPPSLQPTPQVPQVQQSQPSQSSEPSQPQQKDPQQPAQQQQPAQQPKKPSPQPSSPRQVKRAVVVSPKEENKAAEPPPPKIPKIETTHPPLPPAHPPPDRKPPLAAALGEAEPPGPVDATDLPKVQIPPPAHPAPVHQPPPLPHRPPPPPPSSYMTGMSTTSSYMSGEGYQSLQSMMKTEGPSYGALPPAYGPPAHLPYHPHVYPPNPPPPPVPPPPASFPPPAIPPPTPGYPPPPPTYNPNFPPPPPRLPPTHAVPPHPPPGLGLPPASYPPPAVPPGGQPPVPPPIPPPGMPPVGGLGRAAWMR
ASSAY_TEXT: CDK12 inhibition assay (Caliper/LabChip EZ Reader kinase assay)
Type: biochemical
MEASUREMENT_SETUP: Table 1; CDK12 (aa686-1082)/Cyclin K 50 nM, ATP 2 mM, 3 hr at 27° C.
Method: Compounds of the invention were assayed for inhibition of CDK7, CDK9, CDK12, and CDK2 activity at Biortus Biosciences (Jiangyin, Jiangsu Province, P.R. of China) using kinase assays for each CDK developed with a Caliper/LabChip EZ Reader (Perkin Elmer, Waltham, MA). […]
PROPERTY_NAME: IC50

Solved cases below.
>  <MOLECULE>
FC(F)(F)c1cnc(N[C@H]2CCCNC2)nc1-c1c[nH]c2cc(-n3ccnc3)ccc12 [Compound 248]

>  <MEASURED_ON>
CDK12 (aa686-1082)/Cyclin K complex (Homo sapiens, UniProt Q9NYV4)

>  <IC50>
0.2 to 5 µM

$$$$
>  <MOLECULE>
CS(=O)(=O)c1cccn2c([C@H]3CCC[C@@H](Nc4ncc(C(F)(F)F)c(-c5c[nH]c6ccccc56)n4)C3)nnc12 [Compound 265]

>  <MEASURED_ON>
CDK12 (aa686-1082)/Cyclin K complex (Homo sapiens, UniProt Q9NYV4)

>  <IC50>
0.2 to 5 µM

$$$$
>  <MOLECULE>
Clc1cnc(N[C@H]2CN3CCC2CC3)nc1-c1c[nH]c2ccccc12 [Compound 134]

>  <MEASURED_ON>
CDK12 (aa686-1082)/Cyclin K complex (Homo sapiens, UniProt Q9NYV4)

>  <IC50>
> 5 µM

$$$$
>  <MOLECULE>
FC(F)(F)c1cnc(N[C@H]2CCCNC2)nc1-c1c[nH]c2cc(-c3nccs3)ccc12 [Compound 332]

>  <MEASURED_ON>
CDK12 (aa686-1082)/Cyclin K complex (Homo sapiens, UniProt Q9NYV4)

>  <IC50>
0.2 to 5 µM

$$$$
>  <MOLECULE>
FC(F)n1ccc(-c2ccc3c(-c4nc(N[C@H]5CCCNC5)ncc4C(F)(F)F)c[nH]c3c2)n1 [Compound 289]

>  <MEASURED_ON>
CDK12 (aa686-1082)/Cyclin K complex (Homo sapiens, UniProt Q9NYV4)

>  <IC50>
0.2 to 5 µM

$$$$
>  <MOLECULE>
O=C(O)c1ccc2c(-c3nc(N[C@H]4CCCNC4)ncc3C(F)(F)F)c[nH]c2c1 [Compound 306]

>  <MEASURED_ON>
CDK12 (aa686-1082)/Cyclin K complex (Homo sapiens, UniProt Q9NYV4)

>  <IC50>
0.2 to 5 µM

$$$$
>  <MOLECULE>
CP(C)(=O)c1cccc2c(-c3nc(N[C@H]4CCCNC4)ncc3C(F)(F)F)c[nH]c12 (single isomer, unassigned) [Compound 353]

>  <MEASURED_ON>
CDK12 (aa686-1082)/Cyclin K complex (Homo sapiens, UniProt Q9NYV4)

>  <IC50>
0.2 to 5 µM

$$$$
>  <MOLECULE>
FC(F)(F)c1cnc(NC2CNCc3ccccc32)nc1-c1c[nH]c2ccccc12 (stereo not drawn) [Compound 215]

>  <MEASURED_ON>
CDK12 (aa686-1082)/Cyclin K complex (Homo sapiens, UniProt Q9NYV4)

>  <IC50>
> 5 µM

$$$$

The record that follows has no IC50 shown yet.
Specify IC50 for CN(C)S(=O)(=O)c1ccc2c(-c3nc(N[C@H]4CCCNC4)ncc3C(F)(F)F)c[nH]c2c1 [Compound 357] and stop.
0.2 to 5 µM

* * *

MEASURED_ON: CDK2/Cyclin E1 complex (Homo sapiens)
ASSAY_TEXT: CDK2 inhibition assay (Caliper/LabChip EZ Reader kinase assay)
Assay type: biochemical
MEASUREMENT_SETUP: Table 1; CDK2/Cyclin E1 0.5 nM, ATP 2 mM, 35 min at 27° C.
pIC50: −log10 of the molar value.
PROPERTY_NAME: pIC50

The examples below pair each entry with its known result.
>  <COMPOUND>
FC(F)(F)c1cnc(N[C@@H]2CNC[C@H](c3nnc4ccccn34)C2)nc1-c1c[nH]c2ccccc12 [Compound 267]

>  <MEASURED_ON>
CDK2/Cyclin E1 complex (Homo sapiens)

>  <pIC50>
5.30 to 6.70

$$$$
>  <COMPOUND>
O[C@H]1CNC[C@@H](Nc2ncc(C(F)(F)F)c(-c3c[nH]c4ccccc34)n2)C1 [Compound 203]

>  <MEASURED_ON>
CDK2/Cyclin E1 complex (Homo sapiens)

>  <pIC50>
5.30 to 6.70

$$$$
>  <COMPOUND>
CCc1cnc(N[C@H]2CCCNC2)nc1-c1c[nH]c2c(S(=O)(=O)O)cccc12 [Compound 362]

>  <MEASURED_ON>
CDK2/Cyclin E1 complex (Homo sapiens)

>  <pIC50>
< 5.30

$$$$
>  <COMPOUND>
N#Cc1ccc2c(-c3nc(N[C@H]4CCCNC4)ncc3C(F)(F)F)c[nH]c2c1-c1ccnnc1 [Compound 261]

>  <MEASURED_ON>
CDK2/Cyclin E1 complex (Homo sapiens)

>  <pIC50>
5.30 to 6.70

$$$$
>  <COMPOUND>
Brc1cnc(NC2CCCNC2)nc1-c1c[nH]c2ccccc12 (stereo in doubt) [Compound 133]

>  <MEASURED_ON>
CDK2/Cyclin E1 complex (Homo sapiens)

>  <pIC50>
6.70 to 7.70

$$$$
>  <COMPOUND>
FC(F)(F)c1cnc(N[C@H]2CCCNC2)nc1-c1c[nH]c2cc(-c3ccnnc3)ccc12 [Compound 230]

>  <MEASURED_ON>
CDK2/Cyclin E1 complex (Homo sapiens)

>  <pIC50>
5.30 to 6.70

$$$$

Provide only the value of recorded pIC50 for C=CC(=O)N1CCC(CO[C@H]2CNC[C@@H](Nc3ncc(C(F)(F)F)c(-c4c[nH]c5c(S(C)(=O)=O)cccc45)n3)C2)CC1 [Compound 264]
< 5.30

* * *

MEASURED_ON: CDK12 (aa686-1082)/Cyclin K complex (Homo sapiens, UniProt Q9NYV4)
Construct: CDK12 (aa686-1082)/Cyclin K complex
ASSAY_TEXT: CDK12 inhibition assay (Caliper/LabChip EZ Reader kinase assay)
Format: biochemical
MEASUREMENT_SETUP: Table 1; CDK12 (aa686-1082)/Cyclin K 50 nM, ATP 2 mM, 3 hr at 27° C.
pIC50: −log10 of the molar value.
Overview of reported pIC50 across a group of compounds:

>  <SMILES_RECORD>
N#Cc1ccc2c(-c3nc(N[C@H]4CCCNC4)ncc3C(F)(F)F)c[nH]c2c1C#N

>  <pIC50>
5.30 to 6.70

$$$$
>  <SMILES_RECORD>
CNC(=O)[C@@H]1CNC[C@@H](Nc2ncc(C(F)(F)F)c(-c3c[nH]c4ccccc34)n2)C1

>  <pIC50>
5.30 to 6.70

$$$$
>  <SMILES_RECORD>
N#Cc1cnc(N[C@H]2CCCNC2)nc1-c1c[nH]c2ccccc12

>  <pIC50>
5.30 to 6.70

$$$$
>  <SMILES_RECORD>
N#Cc1ccc2c(-c3nc(N[C@@H]4CNCC[C@H]4O)ncc3C(F)(F)F)c[nH]c2c1

>  <pIC50>
5.30 to 6.70

$$$$
>  <SMILES_RECORD>
CC1(C)CNC[C@@H](Nc2ncc(C(F)(F)F)c(-c3c[nH]c4cc(S(C)(=O)=O)ccc34)n2)C1

>  <pIC50>
5.30 to 6.70

$$$$

Please list pIC50 recorded for the compound c1ccc2c(-c3nc(N[C@H]4CCCNC4)ncc3C3CC3)c[nH]c2c1
< 5.30

Specify reported pIC50 for the compound shown: O=C(c1ccc2c(-c3nc(N[C@H]4CCCNC4)ncc3C(F)(F)F)c[nH]c2c1)N1CC[C@@H](O)C1
5.30 to 6.70

Determine from records and report pIC50 for CCN1CCC[C@H](Nc2ncc(C(F)(F)F)c(-c3c[nH]c4cc(C#N)ccc34)n2)C1
5.30 to 6.70

Please supply the value of reported pIC50 for the item Cc1noc(C)c1-c1ccc2c(-c3nc(N[C@H]4CCCNC4)ncc3C(F)(F)F)c[nH]c2c1
5.30 to 6.70

Recall and state the measured pIC50 for CCc1cnc(N[C@H]2CCCNC2)nc1-c1c[nH]c2c(S(=O)(=O)C(C)C)cccc12 .
< 5.30

Fill in pIC50 for record O=c1[nH]cc(-c2ccc3c(-c4nc(N[C@H]5CCCNC5)ncc4C(F)(F)F)c[nH]c3c2)c(=O)[nH]1
5.30 to 6.70

Answer with reported pIC50 of CNC(=O)c1cccc2c(-c3nc(N[C@H]4CCCNC4)ncc3C(F)(F)F)cn(COC)c12
< 5.30
